Origin of values: PubChem BioAssay (NCI)

- Tested on: SK-MEL-5 melanoma
- ASSAY METHOD TEXT: NCI-60 one-dose screen, 48 h (100 = growth as untreated, 0 = no growth, -100 = all killed)
- EXPERIMENTAL PARAMETERS: 10 µM
Compounds without any hit were thinned out: in the full panel of roughly 83,000, 20% have a hit.
PARAMETER: growth (%)

>>> df
                                   molecule  system_under_test  parameter  reported_value
0                            CCCC#CCN(CC)CC  SK-MEL-5 melanoma     growth             104
1  COc1cc2c(cc1OC)N(CCO)C1=C(C(=O)OC1)C2c1ccc(Cl)c(Cl)c1 (centres undefined)  SK-MEL-5 melanoma     growth            99.5
2           O=C(C[n+]1ccccc1)c1ccc2ccccc2c1  SK-MEL-5 melanoma     growth             102
3                    Nc1nc(Nc2ccccc2)n[nH]1  SK-MEL-5 melanoma     growth             106

----------
- Tested on: HCT-116 colon
- ASSAY METHOD TEXT: NCI-60 one-dose screen, 48 h (100 = growth as untreated, 0 = no growth, -100 = all killed)
- EXPERIMENTAL PARAMETERS: 10 µM
About 83,000 compounds went through this panel and 20% of them were active in at least one assay; those are over-represented in the sample as a whole.
Reported growth maps to class as: 0 (below 20%), 1 (20% to below 70%), 2 (70% or more)

>>> df
                                    compound  system_under_test  class_assignment
 0  O=c1cc(-c2ccccc2)[nH]n1-c1nc2ccccc2[nH]1      HCT-116 colon                 1
 1  COc1cc(Cc2cc(-c3ccc(Cl)cc3)n[nH]c2=O)ccc1O      HCT-116 colon                 2
 2         Cc1cc(=O)[nH]c(N/N=C/c2ccccc2O)n1      HCT-116 colon                 0
 3  O=C1/C(=C/c2ccc([N+](=O)[O-])s2)Oc2ccccc21      HCT-116 colon                 0
 4  Cn1c([N+](=O)[O-])cnc1/C=C1\Oc2cc(Cl)ccc2C1=O      HCT-116 colon                 0
 5  COc1ccc2c(c1)O/C(=C\c1ncc([N+](=O)[O-])n1C)C2=O      HCT-116 colon                 0
 6  COc1cc(-c2cc(/C=C/C(=O)c3ccc(Cl)c(Cl)c3)[nH]n2)cc(OC)c1OC      HCT-116 colon                 1
 7  COc1cc2cc3c(nc2cc1OC)CCN3Cc1ccc(NC(=O)Nc2cc(C(F)(F)F)cc(C(F)(F)F)c2)cc1      HCT-116 colon                 1
 8  O=C(N/N=C/c1cc2ccccc2c2ccccc12)c1cc(O)c(O)c(O)c1      HCT-116 colon                 1
 9  O=[N+]([O-])c1cccc(-c2ncc(-c3ccc(Cl)cc3Cl)[nH]2)c1      HCT-116 colon                 0
10  O=S(=O)(NCCCNc1nccc(-c2c(-c3ccc(F)cc3)nc3sccn23)n1)c1ccc(F)cc1      HCT-116 colon                 1
11  CNc1ncc(-c2ccc(C(F)(F)F)cc2)c(NC2CCCCCC2)n1      HCT-116 colon                 1
12  CC(=O)O[C@]1(C)CC[C@H]2[C@H](CNCCc3ccc(Cl)cc3)C(=O)O[C@@H]2C2=C(C)C(=O)C[C@H]21      HCT-116 colon                 2
13  Fc1ccc2nc(-c3nc(-c4ccccc4)n4ccccc34)[nH]c2c1      HCT-116 colon                 0
14  O=C(Nc1ccncc1)C(=O)c1cn(S(=O)(=O)c2cccc(Cl)c2)c2ccccc12      HCT-116 colon                 1
15  O=C1Nc2ccc(Cl)cc2/C1=C\c1c(-c2ccc(Cl)cc2)nc2sc(C3CC3)nn12      HCT-116 colon                 1
16                O=C1CC[C@@H]2CCCC[C@@H]2C1      HCT-116 colon                 2
17  O=C(CC(c1ccccc1)N1CCOCC1)c1ccccc1 (stereo not drawn)      HCT-116 colon                 1
18  CCN(CC)CCOc1nc2ccc(OC)cc2c2c1-c1ccc(OC)cc1C2=O      HCT-116 colon                 0
19  O=C(CCCCC(=O)Nc1ccc2c(c1)/C(=C/c1ccc[nH]1)C(=O)N2)NO      HCT-116 colon                 2
20  O=C1/C(=C/c2ccc(Cl)cc2)SC(=Nc2ccc(Cl)cc2)N1Cc1nc2ccccc2[nH]1      HCT-116 colon                 1
21  CC1(C)Cc2c(sc3ncn4nc(-c5ccc(O)cc5)nc4c23)CO1      HCT-116 colon                 2
22  O=S(=O)(Nc1ccccn1)c1ccc(N=Nc2ccc(O)c3ncccc23)cc1      HCT-116 colon                 0
23  Cc1occc1-c1nnc(SCC(=O)c2ccc(NC(=O)CC(C)C)cc2)o1      HCT-116 colon                 2
24  COc1ccc(/C(=C2/O[C@@H]([C@H]3COC(C)(C)O3)[C@H]3OC(C)(C)O[C@@H]23)c2cc(OC)c(OC)c(OC)c2)cc1O      HCT-116 colon                 2
25  COc1ccc(-c2nc3sc(C4CC4)nn3c2/C=C2/C(=O)Nc3ccc(OC)cc32)cc1      HCT-116 colon                 1
26  O=C(NN1C(=O)CSC1c1ccc(Cl)cc1)c1cccnc1 (stereo not drawn)      HCT-116 colon                 2
27  C#Cc1ccc(-n2c(/C=C/c3ccc(Cl)c(F)c3)nc3ncccc3c2=O)cc1      HCT-116 colon                 0
28  CN(C)CC(O)c1ccc2cc(Br)c3ccccc3c2c1 (stereo not drawn)      HCT-116 colon                 1
29  N#CSCC1CC(O)(c2ccccc2)CC(c2ccc(Cl)cc2)O1 (stereo not drawn)      HCT-116 colon                 0
